- test summary: inhibitors of TNFa-induced NFkB p65 translocation, primary screen, imaging, HUVEC, MLSMR starter and 10KST1 sets (AID 438);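 note: compound added about 3h40 before a 20 min TNFalpha stimulation; signal is the nuclear over cytoplasmic p65 intensity ratio per well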
- stated conditions: HUVEC TNFa-induced p65 nuclear translocation; at 2 µM, stronger effect = higher value, 0% TNFa-plus-vehicle, 100% no-TNFa wells
observation type: inhibition (%)
Write the value in % as a bare number.

Any idea what inhibition was measured for COc1ccc(-c2nnc(SCC#N)o2)cc1 ?
-8.7

What inhibition value was documented for this compound, c1ccc(OCCCn2nnc(-c3ccncc3)n2)cc1 ?
-9.9

Request the reported inhibition associated with CCOC(=O)NC(=O)CSc1nnnn1-c1ccc(Cl)cc1
10

// query inhibition value for entry Cc1cnc(NC(=O)CSc2nnc(-c3ccccc3)n2Cc2ccccc2)s1
-5.5

Item CCOP(=O)(c1ccc(N(C)C)cc1)C(O)c1c(Cl)cccc1Cl (centres undefined) has what recorded inhibition?
-3.5

State the recorded inhibition for this entry: COc1ccc(CCNC(=O)C2CCCN(c3nn4c(=O)cc(C)nc4s3)C2)cc1OC (centres undefined)
-4

# input compound: COc1ccc(CCNc2oc(-c3ccccc3OC)nc2C#N)cc1 ; wanted: its inhibition
-4.3

Entry under review: COC(=O)C1=C(C)NC(C)=C(C(=O)OC)C1C(=O)OC1CCCCC1=O (centres undefined) . Reported inhibition?
8.7

# input compound: O=C(CSc1nnc(-c2cnccn2)n1Cc1ccco1)c1ccc(Cl)cc1 ; wanted: its inhibition
16.6

Recorded inhibition of COc1ccc(CN2C(=O)c3cccnc3C2Nc2cc(Cl)ccc2OC)cc1 (centres undefined) , please.
3

Give the measured inhibition of Cc1cccc2c1N(CC(=O)OC(C)C)C(=O)C2=O .
0

Data request, read-out inhibition, for CCN(CC)c1nc2cc(OC)ccc2cc1C#N
-7.8

May I ask what inhibition has been recorded for O=C(O)CC(C(=O)Nc1cccc(C(F)(F)F)c1)C1CCCO1 (centres undefined) ?
-10.1

Recorded inhibition for COc1cc(OC)cc(C(=O)NCCN2CCOCC2)c1 , please?
-11.2

Query: inhibition; subject: COCCn1c(C)c(C(=O)O)sc1=S
3.8

Record request: inhibition value, item CN1C(=O)c2oc3ccccc3c(=O)c2C1c1ccccn1 (centres undefined)
5.4

Record request: inhibition value, item Cc1ccc(Cn2ncc3c(NCCCN4CCOCC4)ncnc32)cc1
-14.6

Which inhibition value is on record for COc1ccc(C2CC(=O)c3c(C)nc(N4CCN(c5ccccc5)CC4)nc3C2)cc1 (centres undefined) ?
5.6

Record request: inhibition value, item O=c1cc(C(F)F)oc2c1ccc1ccccc12
-4

Please report the recorded inhibition for Nc1nc2n(n1)C(c1cccc(Cl)c1)CC(c1ccc(F)cc1)N2 (centres undefined) .
-12.4

Give the measured inhibition of COc1ccc(OC)c(C2=NOC(C(=O)Nc3cc(C)nn3-c3ccccc3)C2)c1 (centres undefined) .
5.8

Find the recorded inhibition belonging to CC1CCCCN1CCNC(=O)C1CCN(S(=O)(=O)c2cccc3cccnc23)CC1 (centres undefined) and report it.
-0.8

State the recorded inhibition for this entry: O=C(NC1CCCCC1)C(c1ccc(Cl)cc1)N(C(=O)c1cnccn1)c1ccc2c(c1)OCO2 (centres undefined)
3.4

Any idea what inhibition was measured for CC1(C)NC(=O)N(CCCOc2ccc(Br)cc2Cl)C1=O ?
-10

inhibition lookup needed for Cc1ccccc1CN1CCN(C(=O)c2cccc(F)c2)CC1 , thanks.
-13

For COC(=O)c1sccc1NC(=O)c1ccco1 , what is its reported inhibition?
-11.9

# lookup: inhibition of CC(C)CN(CC(C)C)c1nc(N)c(C#N)c(CC#N)c1C#N
-7

Please look up its inhibition: CC1=C(C(=O)N2CCOCC2)C(c2ccsc2)C2=C(CCCC2=O)N1 (centres undefined)
-25.2

# query: inhibition of entry O=C(CN(c1ccc(F)cc1)S(=O)(=O)c1ccc2c(c1)OCCO2)NCC1CCCO1 (centres undefined)
0.8

Consider the compound CCOCC(=O)Nc1ccc(S(=O)(=O)N2CCOCC2)cc1 and give its measured inhibition.
-3.2

Which inhibition reading was recorded for the compound O=C(CN1C(=O)CCSc2ccccc21)Nc1ccc(F)cc1 ?
0.7

Please report the recorded inhibition for COCCCn1c2nc3ccccc3nc2c2c(=O)n(-c3ccccc3OC)cnc21 .
6.3

Given the compound CCCCOc1ccccc1NC(=O)c1ccco1 , what is its reported inhibition?
11

I'd like to know its inhibition. The compound in question is C#CC1(O)CC(C)N(C)C(C)C1 (centres undefined)
-0.3

Form field: reported inhibition of C=CCOC(=O)CC(NC(=O)c1ccccc1)c1ccccc1 (centres undefined)
9.6

What does the record list as inhibition for Nc1c(C(=O)NCCc2ccccc2)nnn1Cc1ccccc1 ?
4.8

Which inhibition is listed for CCCCOc1cccc(NC(=O)CSc2nccn2C)c1 ?
2.5

Can you share its inhibition? I mean this compound: COc1ccccc1C(=O)N1CCNC(=O)C1CC(=O)Nc1ccc(Cl)cc1 (centres undefined)
1.3

Look up inhibition for this compound: Cc1ccc2c(c1)sc1ncc(NC(=O)c3ccccc3)c(=O)n12
2.1
